# maps each entry to its inhibition at 1 µM
- measuredTarget: purified recombinant human IDO1 (rhIDO1) (Homo sapiens)
- Construct: purchased Origene
- Sequence (P14902 whole entry): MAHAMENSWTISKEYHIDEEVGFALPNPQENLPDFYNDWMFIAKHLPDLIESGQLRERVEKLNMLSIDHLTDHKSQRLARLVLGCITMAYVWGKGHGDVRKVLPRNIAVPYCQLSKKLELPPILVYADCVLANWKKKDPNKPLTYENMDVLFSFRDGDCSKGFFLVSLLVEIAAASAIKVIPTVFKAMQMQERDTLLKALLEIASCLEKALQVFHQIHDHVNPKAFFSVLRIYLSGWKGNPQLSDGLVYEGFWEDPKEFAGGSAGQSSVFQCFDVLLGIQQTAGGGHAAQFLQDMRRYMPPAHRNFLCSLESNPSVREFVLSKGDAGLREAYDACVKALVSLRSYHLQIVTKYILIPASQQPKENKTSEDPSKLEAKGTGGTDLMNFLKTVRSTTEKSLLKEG
- experimentDescription: rhIDO1 enzymatic assay (conversion of L-Trp to L-KYN, p-dimethylaminobenzaldehyde readout)
- Type: biochemical
- conditionDescription: rhIDO1, compound 1 µM; mean ± SE of two independent experiments
Field format: number, assumed %, no unit text.

# inhibition at 1 µM lookup, item N#Cc1ccc(-c2cn(Cc3cnc4scc(-c5ccc(Br)cc5)n34)nn2)cc1 [11e]
28

# repeat for O=C(O)CCc1cn(CC(=O)NCc2cnc3scc(-c4ccc(Br)cc4)n23)nn1 [12j]
33

// next record O=C(O)CCc1cn(Cc2cnc3scc(-c4ccc(Br)cc4)n23)nn1 [11j]
81

Same lookup for COc1ccc(-c2cn(Cc3cnc4scc(-c5ccc(Br)cc5)n34)nn2)cc1 [11c] , please.
57

Can you check Nc1ccc(-c2cn(Cc3cnc4scc(-c5ccc(Br)cc5)n34)nn2)cc1 [11d] next?
17
